# Test system: RD cells
# METHOD DESCRIPTION: Cytotoxicity, neutral red method, RD cells
# CONDITIONS: RD cells, neutral red method
Listed here are molecules together with their documented log10(CC50).
ENDPOINT: log10(CC50) (log10 of the value in µM)

MOLECULE	ASSAY SYSTEM	MEASURED VALUE
CCN(CC)CCNC(=O)c1cc(-c2ccnn2C)nc2ccccc12 [Compound 6c]	RD cells	2.12
CCN(CC)CCNC(=O)c1cc(OCc2ccccc2)nc2ccccc12 [Compound 5k]	RD cells	1.13
CCN(CC)CCNC(=O)c1cc(-c2cnn(C)c2)nc2ccccc12 [Compound 6b]	RD cells	2.40
CCN(CC)CCNC(=O)c1cc(OCC2CC2)nc2ccccc12 [Compound 5g]	RD cells	1.59
CCCOc1cc(C(=O)NCCN(CC)CC)c2ccccc2n1 [Compound 5d]	RD cells	1.67
